Entry source: patent US5001118A

Assay: Acute toxicity, oral administration
Type: in vivo
Conditions: mouse, in vivo, po
value kind: LD50 at 336 h

Quick check: LD50 at 336 h of C=C1CC[C@H](O)C/C1=C/C=C1\CCC[C@]2(C)[C@@H]([C@H](C)CC[C@@H](O)C(C)(C)O)CC[C@@H]12 [24R,25-(OH)2 -D3] ? ≥ 100 mg/kg
